Test system: ACVR1
Condition Set: Compound Concentration (nM):1000;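 also: KINOMEscan scanMAX binding as percent activity remaining versus control; lower means stronger binding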
Result Type: Percent Control (%)
Lab book: enter the figure in %, no units written.

In the examples that follow, each entry is paired with its recorded Percent Control.
> print(dat)
                                   compound  system  units.label  number
1  O=C1Nc2ccc(C(=O)c3ccco3)cc2C1=Cc1cc(Cl)c(O)c(Cl)c1 [GW406108X]   ACVR1            %      89
2  COc1ccc2cc(-c3c(-c4ccncc4)nc(-c4ccc(S(C)(=O)=O)cc4C)n3C)ccc2c1   ACVR1            %      60

Find the measured Percent Control: item Cl.O=S1CCN(Cc2ccc(-c3ccc4ncnc(Nc5ccc(OCc6ccccc6)c(F)c5)c4c3)o2)CC1 [GW576924A] , target or system ACVR1.
100

Find the measured Percent Control: item COc1ccc2[nH]c3c4[nH]c5ccc(OC)cc5c4c4c(c3c2c1)C(=O)NC4=O [GW296115X] , target or system ACVR1.
77

* * *

Tested on: EGFR(L858R,T790M)
Condition Set: Compound Concentration (nM):1000
Percent Control for assorted molecules
Lab book: enter the figure in %, no units written.

> print(dat)
                                   molecule             system  units.label  number
1  Nc1ncnc2occ(-c3ccc(NC(=O)Nc4cc(C(F)(F)F)ccc4F)cc3)c12 [GW770249X]  EGFR(L858R,T790M)            %      96
2  COc1cc(/C=N/Nc2ncnc3[nH]ncc23)ccc1O [GW578748X]  EGFR(L858R,T790M)            %      72

Data request, read-out Percent Control, for COc1cc(C=NNc2ncnc3c2cnn3-c2ccccc2)ccc1O [GW513184X]
76

Data request, read-out Percent Control, for NS(=O)(=O)c1ccc(N/N=C2\C(=O)Nc3ccc(-c4cnco4)cc32)cc1
66

* * *

System: PLK4
Condition Set: Compound Concentration (nM):1000
// f strictly below 70% in Percent Control; t otherwise

Worked examples follow.
> print(dat)
                                   compound  class.label
1  CC1=C(C(=O)Nc2ccc3[nH]ncc3c2)C(c2ccc3ccccc3c2)CC(=O)N1 (stereo not drawn) [GSK270822A]            t
2  NS(=O)(=O)c1ccc(N/N=C2\C(=O)Nc3ccc(Cl)cc32)cc1 [GW280670X]            t
3  COc1cc(/C=N/Nc2ncnc3[nH]ncc23)ccc1O [GW578748X]            f

Kindly determine if Percent Control recorded for CC(C)COC(=O)c1ccc2c(c1)/C(=C/Nc1ccc(S(N)(=O)=O)cc1)C(=O)N2 [GW416981X] is above or exactly 70%.
f

Kindly determine if Percent Control recorded for NS(=O)(=O)c1ccc(Nc2ncc(-c3ccccc3)o2)cc1 [GW572399X] is above or exactly 70%.
t

Kindly determine if Percent Control recorded for CN(C)c1cc2c(Nc3ccc4c(cnn4Cc4ccccc4)c3)ncnc2cn1 [GW282974X] is above or exactly 70%.
f

Kindly determine if Percent Control recorded for COc1cc2ncnc(Nc3ccc4c(cnn4Cc4ccccc4)c3)c2cc1OC.Cl [GW282449A] is above or exactly 70%.
t

Kindly determine if Percent Control recorded for C[C@@H](Oc1cc(-n2cnc3ccc(OC4CCN(C)CC4)cc32)sc1C(N)=O)c1ccccc1Cl [GSK579289A] is above or exactly 70%.
t

Kindly determine if Percent Control recorded for NS(=O)(=O)c1ccc(N/N=C2\C(=O)Nc3ccc(-c4cnco4)cc32)cc1 is above or exactly 70%.
f

Kindly determine if Percent Control recorded for COc1ccc2c(-c3ccnc(Nc4cccc(OC(F)(F)F)c4)n3)cnn2n1 [GW810372X] is above or exactly 70%.
t

Kindly determine if Percent Control recorded for COc1ccc2cc(-c3c(-c4ccncc4)nc(-c4ccc(S(C)(=O)=O)cc4C)n3C)ccc2c1 is above or exactly 70%.
t

Kindly determine if Percent Control recorded for O=C1Nc2ccc(C(=O)c3ccco3)cc2C1=Cc1cc(Cl)c(O)c(Cl)c1 [GW406108X] is above or exactly 70%.
f
